biological target: full-length beta-Catenin (Uniprot ID P35222) (Homo sapiens (Human)) (UniProt P35222); assay: fluorescence polarization competition; peptide titrated against 10 nM full-length beta-catenin + 10 nM 5FAM-TCF4(10-53)
Starred links: 1 amine or outer side, 2 acyl side, 3 side chain; linkers in the order of their positions; H or OH if unused. Positions of bridges follow the written chain, without caps; N, C: chain ends. Non-standard residues stand in square brackets, D forms with d. Primed or numbered codes have the meaning given here. PyrS2″ = (S)-3-amino-1-((pent-4-en-1-yloxy)carbonyl)pyrrolidine-3-carboxylic acid (stapling residue), C=CCCCOC(=O)N1CC[C@@](N[*:1])(C(=O)[*:2])C1; B5(16) = 2-amino-2-(pent-4-en-1-yl)hept-6-enoic acid = 2,2-bis(4-pentenyl)glycine (stitching residue), C=CCCCC(CCCC=C)(N[*:1])C(=O)[*:2]; B5(5) = 2,2-bis(4-pentenyl)glycine, 2-amino-2-(pent-4-en-1-yl)hept-6-enoic acid (stitching residue), C=CCCCC(CCCC=C)(N[*:1])C(=O)[*:2]; TfeGA = (S)-2-amino-3-((carboxymethyl)(2,2,2-trifluoroethyl)amino)propanoic acid, O=C([C@H](CN(CC(=O)[*:3])CC(F)(F)F)N[*:1])[*:2]; PyrS1 = (S)-3-amino-1-((but-3-en-1-yloxy)carbonyl)pyrrolidine-3-carboxylic acid, C=CCCOC(=O)N1CC[C@@](N[*:1])(C(=O)[*:2])C1; B6 = 2-amino-2-(hex-5-en-1-yl)oct-7-enoic acid, C=CCCCCC(CCCCC=C)(N[*:1])C(=O)[*:2]; Phe(3-CONH2) = NC(=O)c1cccc(C[C@H](N)C(=O)O)c1; Phe(3-COOH) = N[C@@H](Cc1cccc(C(=O)O)c1)C(=O)O; Phe(2-CF3) = N[C@@H](Cc1ccccc1C(F)(F)F)C(=O)O; Phe(2-CONH2) = NC(=O)c1ccccc1C[C@H](N)C(=O)O; Bta = N[C@@H](Cc1csc2ccccc12)C(=O)O; Lys(iPr) = CC(C)NCCCC[C@H](N)C(=O)O; αAllylPro = C=CC[C@@]1(C(=O)O)CCCN1; tBuAla = CC(C)(C)C[C@H](N)C(=O)O; 3Thi = N[C@@H](Cc1ccsc1)C(=O)O; Cha = N[C@@H](CC1CCCCC1)C(=O)O
readout.type: IC50 (nM)
Could you give me the number in nM? Just the number is fine.

In the examples that follow, each entry is paired with its recorded IC50.
- binder: "Ac-[αAllylPro]D[tBuAla][B6]D[Phe(3-COOH)]QAFL[PyrS1][Phe(2-CF3)][Bta]A-NH2 (staple 1-4, 4-11; not fully specified; printed as Ac-PL3-Asp-Npg-B6-Asp-3COOHF-Gln-Ala-Phe-Leu-PyrS1-2F3MeF-BztA-Ala-NH2) [I-2519]"
  readout.type: "IC50"
  readout.unit: "nM"
  endpoint.value: 94
- binder: "Ac-[αAllylPro]D[tBuAla][B5(5)]D[TfeGA]AAFL[PyrS2″][3Thi][Bta][Phe(2-CONH2)]-NH2 (staple 1-4, 4-11; also: staples hydrogenated: -CH=CH- reduced to -CH2-CH2-) [I-1717]"
  readout.type: "IC50"
  readout.unit: "nM"
  endpoint.value: 249
- binder: "Ac-[αAllylPro]N[Cha][B5(5)]DQ[Lys(iPr)]AFL[PyrS2″][Phe(3-CONH2)][Bta]Q-NH2 (staple 1-4, 4-11) [I-2163]"
  readout.type: "IC50"
  readout.unit: "nM"
  endpoint.value: 3720

Consider the additional binder presented here.
stdin: Would you kindly share the measured IC50 for Ac-[αAllylPro]D[tBuAla][B5(16)]D[TfeGA]AAFL[PyrS2″][3Thi][Bta]N-NH2 (staple 1-4, 4-11) [I-1705] ?
stdout: 9

Data credit: patent US20240116985A1
